Reference source for all entries: the Human Domainome abundance scans (Beltran et al. 2025)

B1: Protein S100-G, residues 1 to 79; numbered along this chain, P02633 (parent)
chain: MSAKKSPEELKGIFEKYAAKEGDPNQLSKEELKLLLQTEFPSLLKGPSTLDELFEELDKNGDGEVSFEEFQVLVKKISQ

Variants of: B1
Test: abundance fitness (aPCA) (normalised: wild type 0, dead -1); higher = more abundant; growth selection in yeast, the domain comes from the species named
Conditions: Bos taurus
I'd appreciate it if you could supply abundance fitness values for the items below.
Give bare numbers.

Previously resolved entries follow.
1) L32A: 0.027
2) L43S: 0.023
3) E39S: -0.308
4) P7D: -0.119

# batch: return abundance fitness for each of the 6 variants below
1. L34Y
2. D51N
3. E64M
4. F40S
5. L50M
6. Q26K

Output:
-0.015
0.032
0.035
-0.16
-0.01
-0.05

Provide the reported abundance fitness of each entry below, same order.
1. L32C
2. Q71K
3. E68A
4. L36R
5. L34R
6. Q26P
7. E52V

Output:
1. -0.097
2. -0.074
3. -0.016
4. -1.92
5. 0.05
6. -0.523
7. -0.024

Batch request: abundance fitness for each of the following variants.
1. S48R
2. L50P
3. K75Q
4. I13S
5. S28L
6. F40I
7. P41R
8. V74C

Output:
0.038
-0.059
-0.11
-0.26
-0.208
0.019
-0.059
-0.069
